test system: RXF 393 renal; assay: NCI-60 one-dose screen, 48 h (100 = growth as untreated, 0 = no growth, -100 = all killed); settings: 10 µM unless noted
About 83,000 compounds went through this panel and 20% of them were active in at least one assay; those are over-represented in the sample as a whole. Active and inactive are the calls of the source. The calls were made as follows: active = growth percent below 10; inactive = the rest.
Entries annotated with measured growth

Before answering, review these 5 worked examples.
The reported value for CC(C)(C)C(=O)C1CC(C#N)=C2C=Cc3c(ccc4ccccc34)N21 (centres undefined) in terms of growth is 91.8% (inactive)

The reported growth of the compound CC1=C(C(=O)OC(C)C)C(c2ccc(O)cc2)NC(=O)N1 (centres undefined) was 104% (inactive)

Value of growth reported for the compound `COc1ccc2oc(=O)c(-c3csc(N/N=C(\C)c4cc(OC)c(OC)c(OC)c4)n3)cc2c1` is 85.7% (inactive)

Query CC1=C(C(=O)Nc2ccccc2)C(c2ccc3ccccc3c2)n2c(nc3ccccc32)N1 (centres undefined) yields growth of 53.3% (inactive)

`Cc1nn(-c2ccccc2)c2nc(C)n(CC(=O)N/N=C/c3ccccc3O)c(=O)c12` yielded growth of 25.9% (inactive)

Consider the additional compound presented here.
The measured growth associated with `O=[N+]([O-])c1cccc(-c2nnc3c(/C=C/c4ccc(F)cc4)nc4ccccc4n23)c1` reads 77.2% (inactive)

###

tested on: HS 578T breast; experiment: NCI-60 one-dose screen, 48 h; conditions: 10 µM unless noted
The panel holds about 83,000 compounds, 20% with a hit somewhere; the sample as a whole holds those more often. Activity calls are given as the source filed them. The calls were made as follows: active = growth percent below 10; inactive = the rest.
Give one outcome, nothing more. List: yes (1) for active, no (0) for inactive

Record excerpt, results attached:
Tell me the recorded outcome of this test for `O=Cc1cncc(-c2ccc3ncnc(N4CCc5cc(F)c(Cl)cc54)c3c2)c1` .
yes (1)

Identify the outcome logged in this assay for the molecule shown: `COc1cc(/C=C/C(=O)c2cnn(-c3cc(=O)[nH]c4ccccc34)c2C)cc(OC)c1OC`
no (0)

For `COC(=O)c1cc(C(=O)C(C)(C)C)n2c3ccccc3c3ccccc3c12` , which call appears in the assay record?
no (0)

Others:
How was `COc1ccc(NC(=O)Nc2nc3ccc([N+](=O)[O-])cc3s2)cc1` classified in this test?
yes (1)

###

Quick reference: growth of the listed items.
test system: NCI-H23 lung; test: NCI-60 one-dose screen, 48 h (100 = growth as untreated, 0 = no growth, -100 = all killed); settings: 10 µM unless noted
Compounds without any hit were thinned out: in the full panel of roughly 83,000, 20% have a hit.
State just the number; it will be interpreted in %.

Here are 4 compounds together with their reported answers.
Briefly, growth measured for `Cc1ccc(S(=O)(=O)N(CCn2ccnc2[N+](=O)[O-])CCn2ccnc2[N+](=O)[O-])cc1` : 104

Form field growth, entry `O=Cc1cncc(-c2ccc3ncnc(N4CCc5cc(F)c(Cl)cc54)c3c2)c1` : 44.6

growth reading for `Cn1cc(-c2cc3nc(-c4c[nH]c5ccccc45)cc(N)n3n2)c2ccccc21` : -56.9

Measured growth, `Nc1cc(-c2c[nH]c3ccc(F)cc23)nc2cc(-c3c[nH]c4ccccc34)nn12` : -12.7

---
The reported value for `CN(C)CCCNC(=S)Nc1ccc(/C=C/c2ccc(Cl)cc2)cc1` in terms of growth is -89.2

Reported growth for `CS(=O)(=O)Nc1cccc(-n2cnc3cc(-c4ccc(O)cc4)ccc32)c1` was 35.3

Data point: `Fc1ccc(N2CC(Cn3c(C(F)(F)F)cc4c(Cl)ncnc43)C2)c(F)c1` ; growth = -76

The compound `Cc1[nH]nc2ccc3nc(-c4cnn(CCO)c4)c4c(c3c12)CCCC4` showed growth equal to 52.7

Record `COc1ccccc1/C=C/c1cccc(NC(=S)NCCCCN(C)C)c1` . Reported growth: -97.5

According to the records, this compound COC(=O)c1c(C(=O)OC)c2ccc3c4ccccc4ccc3n2c1C(=O)C(C)Br (stereo not given) displays growth of 33.4
